# target-desc: MCL-1 (Homo sapiens, UniProt Q07820, K194A/K197A/R201A)
# Sequence (Q07820 173-321 K194A/K197A/R201A, looked up): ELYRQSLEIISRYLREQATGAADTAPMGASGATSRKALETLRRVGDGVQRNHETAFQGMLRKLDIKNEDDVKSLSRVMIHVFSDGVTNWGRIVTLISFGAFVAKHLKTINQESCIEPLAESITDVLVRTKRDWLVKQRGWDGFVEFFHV
# test-summary: Protein-compound interaction assay, surface plasmon resonance (SPR assay, Assay 8)
# Format: binding
# condition-parameters: read-out: koff [1/s], SPR, immobilized MBP-MCL-1, 25° C.; geometric mean
assay-endpoint: koff
Field: value (include unit after the number)

Cc1c2c(nn1C)COCc1ccccc1Cn1c(C(=O)O)c(CCCOc3cccc4cc(F)ccc34)c3ccc(Cl)c-2c31 (racemic) [Example 48] = 0.006 s⁻¹
Cc1c2c(nn1C)COCc1ccccc1Cn1c(C(=O)O)c(CCCOc3cccc4cc(F)ccc34)c3ccc(Cl)c-2c31 (single isomer, unassigned; enantiomer 1) [Example 49] = 0.0058 s⁻¹

Hello, I would appreciate it if you could give koff for each entry below.
1. Cc1c2c(nn1C)COCc1ccccc1Cn1c(C(=O)O)c(CCCOc3cccc4ccccc34)c3cccc-2c31 (single isomer, unassigned; enantiomer 1)
2. Cc1c2c(nn1C)COCc1ccccc1Cn1c(C(=O)O)c(CCCOc3cccc4cc(F)ccc34)c3ccc(F)c-2c31 (single isomer, unassigned; enantiomer 1)
3. Cc1c2c(nn1C)COCc1ccccc1Cn1c(C(=O)O)c(CCCOc3cccc4ccccc34)c3ccc(Cl)c-2c31 (single isomer, unassigned; enantiomer 1)

Result string:
1: 0.068 s⁻¹; 2: 0.011 s⁻¹; 3: 0.011 s⁻¹
